# Test system: turtle Thyroid Hormone Receptor, alpha (TRa), gene 101949057
# Test: ATG_trTRa_XSP1: Attagene TRANS-FACTORIAL Multi-Species (XSP1) HepG2 Assay for turtle Thyroid Hormone Receptor, alpha (TRa) (AID 2283806)
Inconclusive results are not listed. Activity calls are given as the source filed them. The calls were made as follows: active = hit-call score of the fitted dose curve at least 0.9, where 1 is the maximum; inconclusive = response in the unintended direction; inactive = score below 0.9.
Measured quantity: AC50

Reference set (5 entries):
CO/C=C(/C(=O)OC)c1ccccc1Oc1cc(Oc2ccccc2C#N)ncn1 :: inactive
COC(=O)N(OC)c1ccccc1COc1ccn(-c2ccc(Cl)cc2)n1 :: inactive
C=CC1(C)OC(=O)N(c2cc(Cl)cc(Cl)c2)C1=O (centres undefined) :: 134 µM (active)
C#CCOS(=O)OC1CCCCC1Oc1ccc(C(C)(C)C)cc1 (centres undefined) :: inactive
CCCCC(CC)COC(=O)c1ccccc1C(=O)OCC(CC)CCCC (centres undefined) :: 47.8 µM (active)

According to the records, this compound CCCC1COC(Cn2cncn2)(c2ccc(Cl)cc2Cl)O1 (centres undefined) displays AC50 of inactive

The reported AC50 of the compound CC(C)(C)c1ccc(CSc2cnn(C(C)(C)C)c(=O)c2Cl)cc1 was inactive

AC50 measured on CCCCOC(=O)c1ccccc1C(=O)OCCCC = inactive

// sample CON(C)C(=O)Nc1ccc(Cl)c(Cl)c1 , its AC50 was inactive

* * *

# Test: BSK_3C_uPAR: BioMAP Diversity Plus: 3C Assay for Urokinase-type plasminogen activator receptor (uPAR) Biomarker Activity (AID 2282998)
# Run conditions: BioMAP 3C HUVEC, uPAR biomarker ELISA; actives raise or lower the signal
Calls of active or inactive are those of the source. The calls were made as follows: active = hit-call score of the fitted dose curve at least 0.9, where 1 is the maximum; inactive = score below 0.9.
The categories you may choose from are active, inactive

These recorded examples may help you get a feel for the data.
Cc1cc(Cl)ccc1OCC(=O)O :: inactive
COc1nc(C)nc(NC(=O)NS(=O)(=O)c2ccccc2CCC(F)(F)F)n1 :: inactive
COC(=O)c1ccccc1C(=O)OC :: inactive
O=C(O)COc1nc(Cl)c(Cl)cc1Cl :: inactive
N#Cc1nn(-c2c(Cl)cc(C(F)(F)F)cc2Cl)c(N)c1S(=O)C(F)(F)F (stereo unspecified) :: active

In: Query: recorded result category for CNC(=S)S in this test
Out: inactive

In: Record lookup: outcome of this test for CCc1nn(C)c(C(=O)NCc2ccc(C(C)(C)C)cc2)c1Cl ?
Out: active

In: How was CN(C)C(=S)SSC(=S)N(C)C classified in this test?
Out: active

* * *

# Read-out: CYP2C9 (gene 1559)
# Test: LTEA_HepaRG_CYP2C9: Life Technologies and Expression Analysis (LTEA) Assay for CYP2C9 using HepaRG (AID 2283484)
# Run conditions: mRNA level, 48 h; actives raise or lower the signal
Active and inactive are the calls of the source. How the source made its calls: active means hit-call score of the fitted dose curve at least 0.9, where 1 is the maximum; inactive means score below 0.9.
Valid outcomes are listed here; reply with one: true (active), false (inactive)

Previously resolved entries follow.
CCOc1cc(Oc2ccc(C(F)(F)F)cc2Cl)ccc1[N+](=O)[O-] :: true
CN(C)C(=S)SSC(=S)N(C)C :: false
CC(C)Oc1cc(-n2nc(C(C)(C)C)oc2=O)c(Cl)cc1Cl :: true

In: Just curious, what result did CCCCOC(=O)c1ccccc1C(=O)OCCCC get here?
Out: false

In: Assay result, entry COP(N)(=O)SC (configuration not stated) — outcome?
Out: false

In: Status in this test for CCOC(=O)C(Cl)Cc1cc(-n2nc(C)n(C(F)F)c2=O)c(F)cc1Cl (configuration not stated) ?
Out: true

In: Please indicate how the test categorized Cc1cc(Cl)ccc1OCC(=O)O .
Out: false

* * *

# Read-out: JUN Transcription Factor, JUN (gene 3725)
# Test: LTEA_HepaRG_JUN: Life Technologies and Expression Analysis (LTEA) Assay for JUN Transcription Factor using HepaRG (AID 2283513)
# Run conditions: mRNA level, 48 h; actives raise or lower the signal
Activity calls are given as the source filed them. The calls were made as follows: active = hit-call score of the fitted dose curve at least 0.9, where 1 is the maximum; inactive = score below 0.9.
Measured quantity: outcome

CC(C)C1(C)N=C(c2nc3ccccc3cc2C(=O)O)NC1=O (stereo unspecified) :: inactive
O=C(O)c1nc(Cl)ccc1Cl :: inactive
CCOC(=O)C(Cl)Cc1cc(-n2nc(C)n(C(F)F)c2=O)c(F)cc1Cl (stereo unspecified) :: inactive
C=CCC1=C(C)C(OC(=O)C2C(C=C(C)C)C2(C)C)CC1=O (stereo unspecified) :: inactive
CCCCNC(=O)n1c(NC(=O)OC)nc2ccccc21 :: inactive

Let us examine a further case.
Quick note, outcome for CNC(=O)ON=CC(C)(C)SC landed at inactive

* * *

# Test: ATG_BRE_CIS: Attagene CIS-FACTORIAL HepG2 Assay for human Bone Morphogenetic Protein (BMP) Response Element (BRE) (AID 2282933)
# Run conditions: HepG2 BMP response element reporter, Attagene transcription factor profiling; actives raise or lower the signal
Active and inactive are the calls of the source. The calls were made as follows: active = hit-call score of the fitted dose curve at least 0.9, where 1 is the maximum; inactive = score below 0.9.
Measured quantity: AC50

Consider the following illustrative entries.
Cc1ccc(-c2c(Cl)nc(C#N)n2S(=O)(=O)N(C)C)cc1 :: 10.3 µM (active)
O=C(Nc1ccccc1)Nc1ccnc(Cl)c1 :: 27.8 µM (active)
COP(N)(=O)SC (stereo not given) :: inactive
CCNc1nc(Cl)nc(NCC)n1 :: inactive

Consider CON(C)C(=O)Nc1ccc(Cl)c(Cl)c1 . Its measured AC50 is inactive

Documented AC50 of Cc1c(F)c(F)c(COC(=O)C2C(/C=C(\Cl)C(F)(F)F)C2(C)C)c(F)c1F (stereo not given) : inactive

* * *

# Read-out: ABC Transporter (ABCB11), ABCB11 (gene 8647)
# Test: CLD_ABCB11_24hr: CellzDirect (CLD) Gene Expression Assay for ABC Transporter (ABCB11) at 48 hours (AID 2283674)
# Procedure: CLD_24hr is a cell-based, multiplexed-readout assay that uses hepatocyte, a human liver primary cell, with measurements taken at 24 hours after chemical dosing in a 96-well plate.CLD_ABCB11_24hr is one of 16 assay component(s) measured or calculated from the CLD_24hr assay. […] Furthermore, this assay endpoint can be referred to as a primary readout. […]
Inconclusive results are not listed. Calls of active or inactive are those of the source. The calls were made as follows: active = hit-call score of the fitted dose curve at least 0.9, where 1 is the maximum; inactive = score below 0.9.
The reply should name one outcome from active, inactive

CCc1nn(C)c(C(=O)NCc2ccc(C(C)(C)C)cc2)c1Cl :: active
COc1nc(C)nc(NC(=O)NS(=O)(=O)c2ccccc2CCC(F)(F)F)n1 :: inactive
CCCCC(CC)COC(=O)c1ccccc1C(=O)OCC(CC)CCCC (stereo unspecified) :: inactive
COC(=O)N(OC)c1ccccc1COc1ccn(-c2ccc(Cl)cc2)n1 :: active
COP(=S)(OC)Oc1nc(Cl)c(Cl)cc1Cl :: inactive

Field: next molecule
In: Which result was noted for this molecule in the test: COC(=O)c1ccccc1C(=O)OC
Out: inactive

* * *

# Read-out: Phosphatase and tensin (PTEN), PTEN (gene 5728)
# Test: LTEA_HepaRG_PTEN: Life Technologies and Expression Analysis (LTEA) Assay for Phosphatase and tensin (PTEN) using HepaRG (AID 2283523)
# Run conditions: mRNA level, 48 h; actives raise or lower the signal
Active and inactive are the calls of the source. The calls were made as follows: active = hit-call score of the fitted dose curve at least 0.9, where 1 is the maximum; inactive = score below 0.9.
Use one of these outcomes when replying: TRUE for active, FALSE for inactive

Past entries and their recorded results:
COC(=O)N(OC)c1ccccc1COc1ccn(-c2ccc(Cl)cc2)n1 :: TRUE
OC(c1ccc(Cl)cc1)(c1cncnc1)c1ccccc1Cl (configuration not stated) :: FALSE
CO/C=C(/C(=O)OC)c1ccccc1Oc1cc(Oc2ccccc2C#N)ncn1 :: FALSE
COC(=O)c1ccccc1C(=O)OC :: FALSE
Cc1c(F)c(F)c(COC(=O)C2C(/C=C(\Cl)C(F)(F)F)C2(C)C)c(F)c1F (configuration not stated) :: FALSE

In: Could you check what this test reported for CC(C)(C)c1ccc(CSc2cnn(C(C)(C)C)c(=O)c2Cl)cc1 ?
Out: FALSE

In: GET /call?item= Cc1cc(Cl)ccc1OCC(=O)O returns the recorded outcome of this test.
Out: FALSE

In: Returns: the outcome recorded for COP(N)(=O)SC (configuration not stated) in this assay.
Out: FALSE

* * *

# Read-out: ABC Transporter (ABCC2), ABCC2 (gene 1244)
# Test: LTEA_HepaRG_ABCC2: Life Technologies and Expression Analysis (LTEA) Assay for ABC Transporter (ABCC2) using HepaRG (AID 2283464)
# Run conditions: mRNA level, 48 h; actives raise or lower the signal
Activity calls are given as the source filed them. How the source made its calls: active means hit-call score of the fitted dose curve at least 0.9, where 1 is the maximum; inactive means score below 0.9.
Give your call using only these classes: active, inactive

COc1ccc(C(c2ccc(OC)cc2)C(Cl)(Cl)Cl)cc1 :: active
CCNc1nc(Cl)nc(NCC)n1 :: inactive
O=C(Nc1ccccc1)Nc1ccnc(Cl)c1 :: active
N#Cc1nn(-c2c(Cl)cc(C(F)(F)F)cc2Cl)c(N)c1S(=O)C(F)(F)F (stereo unspecified) :: inactive
COc1cnc(OC)n2nc(NS(=O)(=O)c3c(OCC(F)F)cccc3C(F)(F)F)nc12 :: inactive
COP(N)(=O)SC (stereo unspecified) :: inactive

In: Test call, this compound: CN(C)C(=S)SSC(=S)N(C)C
Out: inactive

In: Record lookup: outcome of this test for Cc1ccc(-c2c(Cl)nc(C#N)n2S(=O)(=O)N(C)C)cc1 ?
Out: active

In: Could you kindly confirm the outcome this assay logged for CC1COC(Cn2cncn2)(c2ccc(Oc3ccc(Cl)cc3)cc2Cl)O1 (stereo unspecified) ?
Out: active

In: Identify the outcome logged in this assay for the compound shown: Cc1c(F)c(F)c(COC(=O)C2C(/C=C(\Cl)C(F)(F)F)C2(C)C)c(F)c1F (stereo unspecified)
Out: inactive

In: Name the outcome recorded for Fc1ccc(Oc2ccnc3cc(Cl)cc(Cl)c23)cc1 in the assay.
Out: inactive
